This collection of values is drawn from ChEMBL document CHEMBL1141087.

Ki tested on Estrogen receptor beta (Homo sapiens, UniProt Q92731): recorded values
Sequence (Q92731 whole entry): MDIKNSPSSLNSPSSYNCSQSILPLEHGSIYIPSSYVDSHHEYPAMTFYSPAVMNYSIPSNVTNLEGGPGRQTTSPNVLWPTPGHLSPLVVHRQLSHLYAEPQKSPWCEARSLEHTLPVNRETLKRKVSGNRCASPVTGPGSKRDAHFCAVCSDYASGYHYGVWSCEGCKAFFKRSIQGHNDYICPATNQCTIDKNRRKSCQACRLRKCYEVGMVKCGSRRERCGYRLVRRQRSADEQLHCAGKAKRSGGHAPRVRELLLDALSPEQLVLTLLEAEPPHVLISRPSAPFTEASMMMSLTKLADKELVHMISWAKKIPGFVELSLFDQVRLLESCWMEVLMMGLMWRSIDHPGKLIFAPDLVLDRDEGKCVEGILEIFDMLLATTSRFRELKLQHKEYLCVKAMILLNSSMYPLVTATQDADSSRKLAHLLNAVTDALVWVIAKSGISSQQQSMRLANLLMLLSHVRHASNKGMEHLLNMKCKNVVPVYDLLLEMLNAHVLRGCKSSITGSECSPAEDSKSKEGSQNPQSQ
Numbers only, in nM.

Nc1ccc(C2=C(c3ccc(O)cc3)Cc3cc(O)ccc32)cc1 : 2.2
Oc1ccc(C2=C(c3ccc(OCCN4CCCCC4)cc3)c3ccc(O)cc3C2)cc1 : 0.19
NC(=O)c1ccc(C2=C(c3ccc(O)cc3)Cc3cc(O)ccc32)cc1 : 0.46

Could you report Ki for every entry in the following list?
1. CC(=O)c1ccc(C2=C(c3ccc(O)cc3)Cc3cc(O)ccc32)cc1
2. O=C(O)c1ccc(C2=C(c3ccc(O)cc3)Cc3cc(O)ccc32)cc1
3. Oc1ccc(C2=C(c3ccc(CBr)cc3)c3ccc(O)cc3C2)cc1

[reply]
1. 3.8
2. 421
3. 15

----------
EC50 tested on Estrogen receptor beta (Homo sapiens): recorded values
One number for each entry, in nM.

Worked set:
CCC1=C(c2ccc(O)cc2)C(CC)c2cc(O)ccc21 (configuration not stated) : 0.3
CCC1=C(c2ccc(O)cc2)C(C(=O)Nc2ccc(OCCN(C)C)cc2)c2cc(O)ccc21 (configuration not stated) : 512
CCC1=C(c2ccc(O)cc2)C(C(=O)O)c2cc(O)ccc21 (configuration not stated) : 52
Oc1ccc(C2=C(Cc3ccccc3)c3ccc(O)cc3C2)cc1 : 37
CCC1=C(c2ccc(O)cc2)Cc2cc(O)ccc21 : 0.3

Could you report EC50 for every entry in the following list?
1. Oc1ccc(C2=C(c3ccc(F)cc3)c3ccc(O)cc3C2)cc1
2. Oc1ccc(C2=C(c3ccccc3)c3ccc(O)cc3C2)cc1

[reply]
1. 10
2. 54

----------
# test-system: Estrogen receptor (Homo sapiens, UniProt P03372)
# note: boundary value 20 nM maps to not fulfilled; EC50 below it maps to fulfilled

Oc1ccc(C2=C(c3ccc(CBr)cc3)c3ccc(O)cc3C2)cc1 : not fulfilled
Oc1ccc(C2=C(Cc3ccccc3)c3ccc(O)cc3C2)cc1 : fulfilled
Nc1ccc(C2=C(c3ccc(O)cc3)Cc3cc(O)ccc32)cc1 : fulfilled

Now look at this entry.
[ask] For this compound, is EC50 lower than 20 nM? CCC1=C(c2ccc(O)cc2)Cc2cc(O)ccc21
[reply] fulfilled

----------
# test-system: Estrogen receptor (Homo sapiens)
# Sequence (P03372 whole entry): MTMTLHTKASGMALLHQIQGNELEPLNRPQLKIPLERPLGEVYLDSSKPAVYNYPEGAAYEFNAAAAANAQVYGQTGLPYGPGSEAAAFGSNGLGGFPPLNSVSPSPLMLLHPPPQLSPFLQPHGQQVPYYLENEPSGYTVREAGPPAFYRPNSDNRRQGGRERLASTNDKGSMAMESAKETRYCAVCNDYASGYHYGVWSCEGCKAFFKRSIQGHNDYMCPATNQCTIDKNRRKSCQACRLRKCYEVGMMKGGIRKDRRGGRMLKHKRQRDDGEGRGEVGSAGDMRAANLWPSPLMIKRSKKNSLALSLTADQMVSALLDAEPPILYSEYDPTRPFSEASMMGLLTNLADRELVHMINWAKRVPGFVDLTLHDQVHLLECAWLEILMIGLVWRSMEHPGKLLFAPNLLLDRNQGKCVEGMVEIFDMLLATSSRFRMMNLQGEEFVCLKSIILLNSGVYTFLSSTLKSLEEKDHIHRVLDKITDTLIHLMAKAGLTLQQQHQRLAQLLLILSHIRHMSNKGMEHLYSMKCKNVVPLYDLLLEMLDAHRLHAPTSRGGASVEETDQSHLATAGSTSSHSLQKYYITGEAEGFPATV
pEC50: −log10 of the molar value.
Please enter satisfied where pEC50 is greater than or equal to 8, and not satisfied where it is lower.

Reference set (6 entries):
CCC1=C(c2ccc(O)cc2)C(C(=O)Nc2ccc(OCCN(C)C)cc2)c2cc(O)ccc21 (stereo unspecified) : not satisfied
Oc1ccc(C2=C(c3ccc(F)cc3)c3ccc(O)cc3C2)cc1 : satisfied
CCC1=C(c2ccc(O)cc2)C(C(=O)Nc2ccc(O)cc2)c2cc(O)ccc21 (stereo unspecified) : not satisfied
CCC1=C(c2ccc(O)cc2)C(C(=O)O)c2cc(O)ccc21 (stereo unspecified) : not satisfied
Oc1ccc(C2=C(c3ccccc3)c3ccc(O)cc3C2)cc1 : satisfied
CCC1=C(c2ccc(O)cc2)C(C(=O)Nc2ccc(OCCN3CCCCC3)cc2)c2cc(O)ccc21 (stereo unspecified) : not satisfied

Now look at this entry.
[ask] Quick check, pEC50 >= 8? CCC1=C(c2ccc(O)cc2)C(CC)c2cc(O)ccc21 (stereo unspecified)
[reply] satisfied
